As shown below, each of these compounds has a reported IC50 value.
- System: pERK in GP2d cells (KRAS G12D)
- procedure summary: Cell-based pERK HTRF assay
- condition label: GP2d, 1 h, 60 min incubation
quantity: IC50

[[record]]
compound = "CN(c1nc(OC[C@@]23CCCN2C[C@H](F)C3)nc2c(F)c(-c3ccc(F)c4sc(N)c(C#N)c34)c(F)cc12)[C@@H]1CCNC1"
quantity = "IC50"
result = "100 to 1000 nM"

[[record]]
compound = "CN(c1nc(OC[C@@]23CCCN2C[C@H](F)C3)nc2c(Cl)c(-c3ccc(F)c4sc(N)nc34)c(C(F)(F)F)cc12)[C@@H]1CCNC1"
quantity = "IC50"
result = "100 to 1000 nM"

[[record]]
compound = "CCN1[C@@H]2CC[C@H]1CN(c1nc(OC[C@@]34CCCN3C[C@H](F)C4)nc3c(F)c(-c4ccc(F)c5sc(N)nc45)c(C(F)(F)F)cc13)C2"
quantity = "IC50"
result = "100 to 1000 nM"

[[record]]
compound = "Nc1nc2c(-c3cc4nc(OC[C@@]56CCCN5C[C@H](F)C6)nc(N5CC6CCC(C5)N6)c4cc3C(F)(F)F)ccc(F)c2s1"
quantity = "IC50"
result = "≤ 100 nM"

[[record]]
compound = "C[C@@H]1C[C@@H](N(C)c2nc(OC[C@@]34CCCN3C[C@H](F)C4)nc3cc(-c4ccc(F)c5sc(N)nc45)c(C(F)(F)F)cc23)CN1"
quantity = "IC50"
result = "100 to 1000 nM"

[[record]]
compound = "N#Cc1c(-c2ccc(F)c3sc(N)c(C#N)c23)c(Cl)cc2c(N3CC4CCC(C3)N4)nc(OC[C@@]34CCCN3C[C@H](F)C4)nc12"
quantity = "IC50"
result = "≤ 100 nM"

[[record]]
compound = "Nc1nc2c(-c3c(C(F)(F)F)cc4c(N5CC6CC(C5)N6)nc(OCC56CCCN5CCC6)nc4c3F)ccc(F)c2s1"
quantity = "IC50"
result = "100 to 1000 nM"

[[record]]
compound = "Nc1nc2c(-c3c(OC(F)(F)F)cc4c(N5CC6CCC(C5)N6)nc(OC[C@@]56CCCN5C[C@H](F)C6)nc4c3F)ccc(F)c2s1"
quantity = "IC50"
result = "≤ 100 nM"

[[record]]
compound = "Nc1nc2c(-c3cc4nc(OC[C@@]56CCCN5C[C@H](F)C6)nc(N5CC6CCC(C5)N6)c4cc3C(F)(F)F)c(F)cc(F)c2s1"
quantity = "IC50"
result = "≤ 100 nM"

[[record]]
compound = "Nc1nc2c(-c3c(C(F)(F)F)cc4c(N5CC6CCC(C5)N6)nc(OC[C@@]56CCCN5C[C@H](F)C6)nc4c3F)ccc(F)c2s1 [Compound 219]"
quantity = "IC50"
result = "≤ 100 nM"

[[record]]
compound = "Nc1nc2c(-c3c(C(F)(F)F)cc4c(N[C@@H]5CCC6(CNC6)C5)nc(OCC56CCCN5CCC6)nc4c3F)ccc(F)c2s1"
quantity = "IC50"
result = "> 1000 nM"

[[record]]
compound = "CN(c1nc(OC[C@@]23CCCN2C[C@H](F)C3)nc2c(F)c(-c3ccc(F)c4sc(N)c(C#N)c34)c(C(F)(F)F)cc12)[C@@H]1CCN[C@@H]1CF"
quantity = "IC50"
result = "≤ 100 nM"

[[record]]
compound = "Nc1nc2c(-c3c(C(F)(F)F)cc4c(N5CC[C@H]6CCNC[C@H]65)nc(OCC56CCCN5CCC6)nc4c3F)ccc(F)c2s1"
quantity = "IC50"
result = "> 1000 nM"

[[record]]
compound = "Nc1nc2c(-c3c(C(F)(F)F)cc4c(N[C@H]5CCC6(CNC6)C5)nc(OCC56CCCN5CCC6)nc4c3F)ccc(F)c2s1"
quantity = "IC50"
result = "> 1000 nM"

[[record]]
compound = "N#Cc1cc2c(N3C[C@H]4CC[C@@H](C3)N4)nc(OC[C@@]34CCCN3C[C@H](F)C4)nc2c(F)c1-c1ccc(F)c2sc(N)c(C#N)c12"
quantity = "IC50"
result = "≤ 100 nM"

[[record]]
compound = "N#Cc1cc2c(N3CC4CCC(C3)N4)nc(OC[C@@]34CCCN3C[C@H](F)C4)nc2c(F)c1-c1ccc(F)c2sc(N)nc12"
quantity = "IC50"
result = "≤ 100 nM"

[[record]]
compound = "CN(c1nc(OC[C@@]23CCCN2C[C@H](F)C3)nc2c(F)c(-c3ccc(F)c4sc(N)nc34)c(C(F)(F)F)cc12)[C@H]1CNCC12CC2"
quantity = "IC50"
result = "100 to 1000 nM"

[[record]]
compound = "Nc1nc2c(-c3c(C(F)(F)F)cc4c(N5CC6CCC(C5)N6CC5CC5)nc(OC[C@@]56CCCN5C[C@H](F)C6)nc4c3F)ccc(F)c2s1"
quantity = "IC50"
result = "100 to 1000 nM"

[[record]]
compound = "CN1CCC[C@H]1COc1nc(NC2CNC2)c2cc(C(F)(F)F)c(-c3ccc(F)c4sc(N)nc34)c(F)c2n1"
quantity = "IC50"
result = "> 1000 nM"

[[record]]
compound = "CN(c1nc(OC[C@@]23CCCN2C[C@H](F)C3)nc2c(F)c(-c3ccc(F)c4sc(N)c(C#N)c34)c(C#N)cc12)[C@@H]1CCNC1"
quantity = "IC50"
result = "100 to 1000 nM"

[[record]]
compound = "C[C@H]1C[C@@H](N(C)c2nc(OC[C@@]34CCCN3C[C@H](F)C4)nc3c(F)c(-c4ccc(F)c5sc(N)nc45)c(C(F)(F)F)cc23)CN1"
quantity = "IC50"
result = "≤ 100 nM"

[[record]]
compound = "CN(c1nc(OC[C@@]23CCCN2C[C@H](F)C3)nc2c(F)c(-c3ccc(F)c4sc(N)nc34)c(C(F)(F)F)cc12)C1CCNC1 (stereo in doubt)"
quantity = "IC50"
result = "100 to 1000 nM"

[[record]]
compound = "Nc1nc2c(-c3c(C(F)(F)F)cc4c(N[C@H]5CCC[C@@H](N)C5)nc(OCC56CCCN5CCC6)nc4c3F)ccc(F)c2s1"
quantity = "IC50"
result = "> 1000 nM"

[[record]]
compound = "Nc1nc2c(-c3c(C(F)(F)F)cc4c(N5C[C@H]6CC[C@@H](C5)N6)nc(OCC5(CN6CCOCC6)CC5)nc4c3F)ccc(F)c2s1"
quantity = "IC50"
result = "≤ 100 nM"

